The reported measurements were obtained from patent US20200289563A1.

Measurement Target: T1, human CD19 (human, UniProt P15391 20-556)
T1 sequence (looked up): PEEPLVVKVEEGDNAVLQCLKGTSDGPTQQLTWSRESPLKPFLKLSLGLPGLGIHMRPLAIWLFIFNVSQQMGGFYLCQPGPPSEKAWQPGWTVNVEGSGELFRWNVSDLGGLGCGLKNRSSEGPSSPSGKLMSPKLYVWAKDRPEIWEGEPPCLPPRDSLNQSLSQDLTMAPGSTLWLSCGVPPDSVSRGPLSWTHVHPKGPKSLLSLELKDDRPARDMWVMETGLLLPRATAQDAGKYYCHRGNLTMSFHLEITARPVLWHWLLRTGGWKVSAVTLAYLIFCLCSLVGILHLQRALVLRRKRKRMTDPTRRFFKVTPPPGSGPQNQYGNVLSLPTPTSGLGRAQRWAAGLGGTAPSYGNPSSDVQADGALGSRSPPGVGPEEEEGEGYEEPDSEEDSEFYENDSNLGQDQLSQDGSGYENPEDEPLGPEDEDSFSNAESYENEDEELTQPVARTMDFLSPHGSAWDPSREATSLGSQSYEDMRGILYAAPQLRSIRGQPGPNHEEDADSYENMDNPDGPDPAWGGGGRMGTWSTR
Assay Details: cell-based or functional assay
Readout Kind: EC50 of cell viability, Fab-Zap assay on Ramos cells (internalization) (nM)
Quick note: give the figure in nM, leave out the unit.

Request: Find the recorded EC50 of cell viability, Fab-Zap assay on Ramos cells (internalization) belonging to WBP7011-4.100.1 (antibody, V domains shown, also called W7011-4.100.1) VH: EVQLQQSGPELVKPGASVKMSCKASGYTFTSYVIHWVKQKPGQGLEWIGYINPYNDGAEYTEKFKGKATLTSDKSSSTAYMELSSLTSEDSTVYYCARGPYYYGGSPFDYWGQGTTLTVSS VL: DAVMTQTPLSLPVSLGDQASISCRSSQSLENSNGNTYLNWYLQKPGQSPQLLIYRVSNRFSGVLDRFSGSGSGTDFTLKISRVEAEDLGVYFCLQVTHVPYTFGGGTKLEIK and report it.
Result: 0.0148

Request: Find the recorded EC50 of cell viability, Fab-Zap assay on Ramos cells (internalization) belonging to WBP7011-4.87.6 (antibody, V domains shown) VH: QVQLQQSGAELVRPGSSVKISCKASGYAFSTYWMNWVKQRPGQGLEWIGQIYPGDDDTKYNGKFKGKASLTADKSSSTAYMQLISLTSEDSAVYFCARRYFRYDYWYSDVWGAGTTVTVTS VL: DIQMTQTTSSLSASLGDRVTISCRASQDISNYLNWYQQKPDGTVKLLIYYTSRLHSGVPARFSGSGSGTDYSLTISNLEQEDIATYFCHQGNTLPLTFGAGTKLELK and report it.
Result: 0.0085

Request: Find the recorded EC50 of cell viability, Fab-Zap assay on Ramos cells (internalization) belonging to WBP7011_4.225.7 (antibody, mouse IgG2a, V domains shown, also called W7011-4.225.7) VH: EIQLQQSGPELVKPGASVKVSCKASGYAFTSYNMYWVKQSHGKSLEWIGYIDPYNGDTTYNQKFKGKATLTVDKSSSTAYMHLNSLTSEDSAVYYCLTTAYAMDYWGQGTSVTVSS VL: QIVLTQSPAIMSASLGEEITLTCSASSTVNYMHWYQQKSGTSPKLLIYSTSNLASGVPSRFSGSGSGTFYSLTIRSVEAEDAADYYCHQWSSYPYTFGGGTKLEIK and report it.
Result: 0.015

Request: Find the recorded EC50 of cell viability, Fab-Zap assay on Ramos cells (internalization) belonging to WBP7011-4.15.10 (antibody, V domains shown, also called W7011-4.15.10) VH: EVQLQQSGPELVKPGASVKMSCKASGYTFTSYVMHWMKQKPGQGLEWIGYINPYNDGTEYHEKFKGKATLTSDKSSSTAYMELSSLTSEDSAVFYCARGPYYYGGSPFDFWGQGTTLTVSS VL: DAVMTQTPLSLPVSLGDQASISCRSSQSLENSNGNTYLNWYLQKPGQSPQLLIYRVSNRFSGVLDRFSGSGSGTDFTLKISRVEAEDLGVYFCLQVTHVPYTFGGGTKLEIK and report it.
Result: 0.0139

Request: Find the recorded EC50 of cell viability, Fab-Zap assay on Ramos cells (internalization) belonging to WBP7011-4.34.11 (antibody, V domains shown) VH: EVQLQQSGPELVKPGASVKMSCKASGYTFTNYVIHWVKQKPGQGLEWIGYFNPYNDGTEYNEKFKAKATLTSDKSSSTAYMELSSLTSEDSAVYYCAKGPYYYGSSPFDYWGQGTTLTVSS VL: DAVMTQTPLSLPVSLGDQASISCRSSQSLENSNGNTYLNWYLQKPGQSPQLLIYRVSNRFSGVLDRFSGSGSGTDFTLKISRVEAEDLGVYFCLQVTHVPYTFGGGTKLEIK and report it.
Result: 0.007
